# measurement-description: The compound was tested for the inhibition of Carboxypeptidase A
property-label: log10(Ki) (log10 of the value in µM)
Values below are the log10 of the recorded Ki, with µM as the unit.

O=C(O)[C@@H](Cc1ccccc1)C1CC1; 2.81
O=C(O)[C@H](Cc1ccccc1)C1CC1; 2.90

Okay, here is my list. What is log10(Ki) for each of these?
1. O=C(O)[C@@H](Cc1ccccc1)[C@H]1CN1
2. O=C(O)[C@H](Cc1ccccc1)[C@@H]1CN1
3. O=C(O)[C@@H](Cc1ccccc1)[C@@H]1CN1 (single isomer, unassigned)
4. O=C(O)[C@H](Cc1ccccc1)[C@H]1CN1 (single isomer, unassigned)
5. O=C(O)C(Cc1ccccc1)C1CC1 (racemic)
6. O=C(O)C(Cc1ccccc1)c1c[nH]cn1 (racemic)

Output line:
[2.08, 1.54, 2.71, 2.36, 2.90, -0.10]
